Endpoint: pKi. System: Rho kinase 2 (ROCK-II) (Homo sapiens). Items follow.
Sequence (O75116 whole entry): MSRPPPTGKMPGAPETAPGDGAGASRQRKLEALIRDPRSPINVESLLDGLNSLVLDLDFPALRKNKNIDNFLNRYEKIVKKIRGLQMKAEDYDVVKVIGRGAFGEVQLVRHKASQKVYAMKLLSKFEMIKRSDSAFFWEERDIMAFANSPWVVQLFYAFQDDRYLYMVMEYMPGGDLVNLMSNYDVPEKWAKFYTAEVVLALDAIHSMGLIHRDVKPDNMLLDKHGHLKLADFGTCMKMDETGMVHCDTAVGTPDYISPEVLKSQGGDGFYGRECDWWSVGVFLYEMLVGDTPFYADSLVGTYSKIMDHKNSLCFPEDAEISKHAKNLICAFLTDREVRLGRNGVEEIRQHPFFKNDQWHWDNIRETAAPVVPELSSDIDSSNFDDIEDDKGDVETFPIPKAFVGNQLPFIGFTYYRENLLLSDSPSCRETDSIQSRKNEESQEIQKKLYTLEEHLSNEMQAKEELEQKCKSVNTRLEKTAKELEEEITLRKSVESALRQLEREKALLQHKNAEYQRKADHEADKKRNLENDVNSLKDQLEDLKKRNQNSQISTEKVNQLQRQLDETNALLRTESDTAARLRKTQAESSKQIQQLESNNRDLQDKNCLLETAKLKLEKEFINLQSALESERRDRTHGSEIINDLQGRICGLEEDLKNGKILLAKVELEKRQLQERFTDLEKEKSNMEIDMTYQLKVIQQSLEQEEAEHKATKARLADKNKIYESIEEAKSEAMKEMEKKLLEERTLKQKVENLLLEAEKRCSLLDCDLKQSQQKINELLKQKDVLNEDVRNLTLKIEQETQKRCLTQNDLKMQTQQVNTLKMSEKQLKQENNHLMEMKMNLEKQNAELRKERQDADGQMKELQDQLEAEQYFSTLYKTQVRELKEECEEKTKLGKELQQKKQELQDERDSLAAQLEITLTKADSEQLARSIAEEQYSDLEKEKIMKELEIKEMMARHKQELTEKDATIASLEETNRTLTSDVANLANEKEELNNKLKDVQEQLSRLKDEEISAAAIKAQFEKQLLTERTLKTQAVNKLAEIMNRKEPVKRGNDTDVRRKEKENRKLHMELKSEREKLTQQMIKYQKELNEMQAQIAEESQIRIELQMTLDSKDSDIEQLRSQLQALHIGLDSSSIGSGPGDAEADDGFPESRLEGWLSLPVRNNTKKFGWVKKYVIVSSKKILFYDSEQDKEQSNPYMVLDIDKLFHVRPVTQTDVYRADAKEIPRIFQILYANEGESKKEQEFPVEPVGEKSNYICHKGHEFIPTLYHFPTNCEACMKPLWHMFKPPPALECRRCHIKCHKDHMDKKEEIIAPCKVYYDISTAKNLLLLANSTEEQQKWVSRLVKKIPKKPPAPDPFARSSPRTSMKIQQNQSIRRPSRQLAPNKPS
pKi: −log10 of the molar value.

Case Cc1noc(C2CCN(C(=O)[C@@H](N)Cc3ccc(Oc4ccnc5[nH]cc(C)c45)c(F)c3)C2)n1 (single isomer, unassigned) [Example 8A] , Rho kinase 2 (ROCK-II) (Homo sapiens), pKi recorded as > 8.52

Case CN1CCC(NC(=O)[C@@H](N)Cc2ccc(Oc3ccnc4[nH]ccc34)cc2)CC1 [Example 103] , Rho kinase 2 (ROCK-II) (Homo sapiens), pKi recorded as 7.52 to 8.52

Case N[C@@H](Cc1ccc(Oc2ccnc3[nH]cc(CO)c23)c(F)c1)C(=O)N1CCN(Cc2ccccc2)CC1 [Example 207] , Rho kinase 2 (ROCK-II) (Homo sapiens), pKi recorded as > 8.52

Case NC(Cc1ccc(Oc2ccnc3[nH]ccc23)cc1)C(=O)Nc1ccc(C(F)(F)F)cc1 (single isomer, unassigned) [Example 91B] , Rho kinase 2 (ROCK-II) (Homo sapiens), pKi recorded as 7.52 to 8.52

Case N[C@@H](Cc1ccc(Oc2ccnc3[nH]ccc23)c(F)c1)C(=O)Nc1ccccc1 [Example 147] , Rho kinase 2 (ROCK-II) (Homo sapiens), pKi recorded as > 8.52

Case N[C@@H](Cc1ccc(Oc2ccnc3[nH]cc(-c4cccnc4)c23)cc1)C(=O)N1CCN(Cc2ccccc2)CC1 [Example 194] , Rho kinase 2 (ROCK-II) (Homo sapiens), pKi recorded as > 8.52

Case CN(C)CCNC(=O)C(Cc1ccc(Oc2ccnc3[nH]ccc23)cc1)NC(=O)C1CCCCC1 (stereo not shown) [Example 181] , Rho kinase 2 (ROCK-II) (Homo sapiens), pKi recorded as < 7.52

Case Cc1c[nH]c2nccc(Oc3ccc(C[C@H](N)C(=O)N4CCC(Cc5ccccc5)CC4)cc3F)c12 [Example 13] , Rho kinase 2 (ROCK-II) (Homo sapiens), pKi recorded as > 8.52

Case Cc1c[nH]c2nccc(Oc3ccc(C[C@H](N)C(=O)N4CCN(C)C(C)(C)C4)cc3F)c12 [Example 18] , Rho kinase 2 (ROCK-II) (Homo sapiens), pKi recorded as > 8.52

Case Cc1c[nH]c2nccc(Oc3ccc(C[C@H](N)C(=O)NC4(CO)CCOCC4)cc3F)c12 [Example 33] , Rho kinase 2 (ROCK-II) (Homo sapiens), pKi recorded as > 8.52

Case CNC(=O)C(Cc1ccc(Oc2ccnc3[nH]ccc23)cc1)NCC1CCCCC1 (stereo not shown) [Example 185] , Rho kinase 2 (ROCK-II) (Homo sapiens), pKi recorded as < 7.52

Case Cc1c[nH]c2nccc(Oc3ccc(CC(N)C(=O)NCCc4ccncc4)cc3F)c12 (single isomer, unassigned) [Example 57A] , Rho kinase 2 (ROCK-II) (Homo sapiens), pKi recorded as > 8.52

Case Cc1c[nH]c2nccc(Oc3ccc(CC(N)C(=O)N4CCN(Cc5ccc6c(c5)OCO6)CC4)cc3F)c12 (stereo not shown) [Example 52] , Rho kinase 2 (ROCK-II) (Homo sapiens), pKi recorded as > 8.52

Case N[C@@H](Cc1ccc(Oc2ccnc3[nH]ccc23)cn1)C(=O)NC1CCCCC1 [Example 227] , Rho kinase 2 (ROCK-II) (Homo sapiens), pKi recorded as < 7.52

Case Cc1c[nH]c2nccc(Oc3ccc(C[C@@H](N)C(=O)NC4CCOCC4)cc3F)c12 [Example 55] , Rho kinase 2 (ROCK-II) (Homo sapiens), pKi recorded as 7.52 to 8.52

Case Cc1c[nH]c2ncnc(Oc3ccc(C[C@H](N)C(=O)N4CCC(S(=O)(=O)c5ccccc5)CC4)cc3F)c12 [Example 127] , Rho kinase 2 (ROCK-II) (Homo sapiens), pKi recorded as > 8.52
